tested_target: COX-2 (Ovis aries, UniProt P79208)
Sequence (P79208 17-603): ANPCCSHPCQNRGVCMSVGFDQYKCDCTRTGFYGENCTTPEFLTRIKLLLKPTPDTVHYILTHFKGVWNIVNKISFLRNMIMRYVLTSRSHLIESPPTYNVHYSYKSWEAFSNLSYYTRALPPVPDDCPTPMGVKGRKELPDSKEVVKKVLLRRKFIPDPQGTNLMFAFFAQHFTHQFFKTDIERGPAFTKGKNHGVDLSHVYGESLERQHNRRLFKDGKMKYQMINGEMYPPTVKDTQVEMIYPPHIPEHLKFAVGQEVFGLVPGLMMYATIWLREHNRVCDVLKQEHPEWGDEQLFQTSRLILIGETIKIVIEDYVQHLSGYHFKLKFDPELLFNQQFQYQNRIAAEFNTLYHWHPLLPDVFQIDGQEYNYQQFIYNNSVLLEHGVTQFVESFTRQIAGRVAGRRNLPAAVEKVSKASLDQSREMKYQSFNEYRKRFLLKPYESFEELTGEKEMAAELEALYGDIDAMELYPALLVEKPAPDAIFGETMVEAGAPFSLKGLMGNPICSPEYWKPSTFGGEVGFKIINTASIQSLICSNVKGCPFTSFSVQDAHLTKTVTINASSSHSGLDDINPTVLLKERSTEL
assay_details: Colorimetric COX
Format: biochemical, ovine
recorded_conditions: read-out: % inhibition of COX, COX-2
observation_type: inhibition at 100 µM (%)

* O=C(NC[C@@H](O)[C@@H]1CCc2cc(F)ccc2O1)OCC(Cl)(Cl)Cl | 37.7
* O=S(=O)(NC[C@@H](O)[C@@H]1CCc2cc(F)ccc2O1)c1cccc(C(F)(F)F)c1 | 35.5
* O=S(=O)(NC[C@@H](O)[C@@H]1CCc2cc(F)ccc2O1)c1ccc(Br)cc1 | 34.4
* CCOC(=O)NC[C@@H](O)[C@@H]1CCc2cc(F)ccc2O1 | 29.7
* COC(=O)NC[C@@H](O)[C@@H]1CCc2cc(F)ccc2O1 | 18.1
* O=S(=O)(NC[C@@H](O)[C@@H]1CCc2cc(F)ccc2O1)c1ccc(F)cc1F | 28.7
